- Test system: Mus musculus
- testDescription: Phototoxic effect in UV light irradiated mouse assessed as number of mouse bearing erythema at 140 mg/kg, after 96 hrs relative to control
- Type: ADME, organism-based
- Set-up: dose 140 mg/kg
- testParameters: in vivo
recordedMetric: Activity

molecule: CC1COc2c(N3CCSCC3)c(F)c([N+](=O)[O-])c3c(=O)c(C(=O)O)cn1c23 (stereo not given)
recordedMetric: Activity
endpointValue: Non-toxic

molecule: CC1COc2c(N3CCN(C(c4ccccc4)c4ccc(Cl)cc4)CC3)c(F)c([N+](=O)[O-])c3c(=O)c(C(=O)O)cn1c23 (stereo not given)
recordedMetric: Activity
endpointValue: Non-toxic

molecule: CC1COc2c(N3CCC4(CC3)OCCO4)c(F)cc3c(=O)c(C(=O)O)cn1c23 (stereo not given)
recordedMetric: Activity
endpointValue: Non-toxic

molecule: CCn1cc(C(=O)O)c(=O)c2cc(F)c(N3CCNC(C)C3)c(F)c21 (stereo not given) [LOMEFLOXACIN]
recordedMetric: Activity
endpointValue: Toxic

Short answer for CC1COc2c(N3CCN(C(=O)c4ccco4)CC3)c(F)cc3c(=O)c(C(=O)O)cn1c23 (stereo not given) : Activity was Non-toxic

====

- Test system: Mus musculus
- testDescription: Phototoxic effect in UV light irradiated mouse assessed as ear thickness at 140 mg/kg, after 24 hrs relative to control
- Type: ADME, organism-based
- Design: dose 140 mg/kg
- testParameters: in vivo
recordedMetric: Activity (mm)
Please reply with the bare figure in mm and do not write the unit itself.

// CC1COc2c(N3CCSCC3)c(F)c([N+](=O)[O-])c3c(=O)c(C(=O)O)cn1c23 (stereo unspecified) : Activity value = 0.29

Entry CC1COc2c(N3CCC4(CC3)OCCO4)c(F)cc3c(=O)c(C(=O)O)cn1c23 (stereo unspecified) — recorded Activity = 0.32

Reported Activity of CC1COc2c(N3CCN(C(=O)c4ccco4)CC3)c(F)cc3c(=O)c(C(=O)O)cn1c23 (stereo unspecified) : 0.29

The molecule listed as CC1COc2c(N3CCN(C(c4ccccc4)c4ccc(Cl)cc4)CC3)c(F)c([N+](=O)[O-])c3c(=O)c(C(=O)O)cn1c23 (stereo unspecified) shows Activity equal to 0.28

# Activity of CC1COc2c(N3CCN(C)CC3)c(F)cc3c(=O)c(C(=O)O)cn1c23.Cl (stereo unspecified) = 0.29

The reported value for CCn1cc(C(=O)O)c(=O)c2cc(F)c(N3CCNC(C)C3)c(F)c21 (stereo unspecified) in terms of Activity is 0.48

====

- Tested on: Mus musculus
- testDescription: Phototoxic effect in UV light irradiated mouse assessed as ear thickness at 140 mg/kg, after 96 hrs relative to control
- Format: ADME, organism-based
- Parameters: dose 140 mg/kg
- testParameters: in vivo
recordedMetric: Activity (mm)
Give a bare numeral; the unit mm is implied.

Sample CCn1cc(C(=O)O)c(=O)c2cc(F)c(N3CCNC(C)C3)c(F)c21 (stereo unspecified) ; Activity observed: 0.6

Sure, the documented Activity for CC1COc2c(N3CCN(C(=O)c4ccco4)CC3)c(F)cc3c(=O)c(C(=O)O)cn1c23 (stereo unspecified) is 0.3

The compound listed as CC1COc2c(N3CCN(C)CC3)c(F)cc3c(=O)c(C(=O)O)cn1c23.Cl (stereo unspecified) shows Activity equal to 0.35

Entry CC1COc2c(N3CCN(C(c4ccccc4)c4ccc(Cl)cc4)CC3)c(F)c([N+](=O)[O-])c3c(=O)c(C(=O)O)cn1c23 (stereo unspecified) ; Activity = 0.31

Measured Activity of CC1COc2c(N3CCC4(CC3)OCCO4)c(F)cc3c(=O)c(C(=O)O)cn1c23 (stereo unspecified) : 0.35

Reported Activity ( CC1COc2c(N3CCSCC3)c(F)c([N+](=O)[O-])c3c(=O)c(C(=O)O)cn1c23 (stereo unspecified) ) = 0.28
